tested on: Streptococcus sp.; experiment: in vitro antibacterial evaluation, MIC by broth dilution; type: cell-based; details: strain GC 4565; broth dilution, 18 hours at 35° C.
Numbered stars: 1 amine (or outer) side, 2 acyl side, 3 side chain; on linkers, the order of the positions; unused ones are H or OH. Square brackets hold non-standard residues; d marks the D form. Peptide text beside a SMILES is read from it. ξ: configuration not given here. X1 = N=C1NCC(C(O)C(N[*:1])C(=O)[*:2])N1C1OC(CO)C(O)C(O)C1O; ξEnduracididine(βξ-OH,4'ξ) = N=C1NCC(C(O)C(N)C(=O)O)N1; Cha = N[CH](CC1CCCCC1)C(=O)O
VALUE_TYPE: MIC Streptococcus pneumoniae (GC 4565) (mg/L)
Answer in mg/L, number only, no unit symbol.

// worked examples, MIC Streptococcus pneumoniae (GC 4565) included
CC(C)C(=O)Nc1cc(CC2NC(=O)C(C(C)c3ccccc3)NC(=O)CNC(=O)C(CO)NC(=O)C(C(O)C3CNC(=N)N3C3OC(CO)C(O)C(O)C3O)NC(=O)C(C(O)C3CNC(=N)N3)NC2=O)ccc1O (stereo not shown) [Example 15]	64
CC(c1ccccc1)C1NC(=O)CNC(=O)C(CO)NC(=O)C(C(O)C2CNC(=N)N2C2OC(CO)C(O)C(O)C2O)NC(=O)C(C(O)C2CNC(=N)N2)NC(=O)C(Cc2ccc(OC3OC(CO)C(OC4OC5COC(c6ccc(S(C)(=O)=O)cc6)OC5C(O)C4O)C(O)C3O)cc2)NC1=O (stereo not shown) [Example 157]	4
CCOc1cc(C2OCC3OC(OC4C(CO)OC(Oc5ccc(CC6NC(=O)C(C(C)c7ccccc7)NC(=O)CNC(=O)C(CO)NC(=O)C(C(O)C7CNC(=N)N7C7OC(CO)C(O)C(O)C7O)NC(=O)C(C(O)C7CNC(=N)N7)NC6=O)cc5)C(O)C4O)C(O)C(O)C3O2)ccc1OC (stereo not shown) [Example 152]	2

Okay, now this molecule:
GET /values?readout=MIC Streptococcus pneumoniae (GC 4565)&system=Streptococcus sp.&item= N=C1NCC(C(O)C2NC(=O)C(CC3CCCCC3)NC(=O)C(CC3CCCCC3)NC(=O)CNC(=O)C(CO)NC(=O)C(C(O)C3CNC(=N)N3C3OC(CO)C(O)C(O)C3O)NC2=O)N1 (stereo not drawn) [Example 52] (cyclo(G[Cha][Cha][ξEnduracididine(βξ-OH,4'ξ)][X1]S); configuration not given here)
16
